Test system: Radical scavenging activity
Assay: Antioxidant activity assessed as DPPH radical scavenging activity by UV/Visible spectrophotometry
Assay type: functional
The source made the active and inactive calls. The rule behind the calls is not given here.
Labels: 1 (yes) (active), 0 (no) (inactive)

[
  {
    "COMPOUND": "O=C(NO)C1CCCN1C(=O)/C=C/c1ccc(O)cc1 (stereo not drawn)",
    "CAT": "0 (no)"
  },
  {
    "COMPOUND": "COc1cc(/C=C/C(=O)O)ccc1O",
    "CAT": "1 (yes)"
  },
  {
    "COMPOUND": "COc1cc(/C=C/C(=O)N2CCCC2C(=O)NO)ccc1O (stereo not drawn)",
    "CAT": "1 (yes)"
  },
  {
    "COMPOUND": "COc1cc(/C=C/C(=O)N2CCCC2C(=O)NO)cc(OC)c1O (stereo not drawn)",
    "CAT": "1 (yes)"
  },
  {
    "COMPOUND": "O=C(NO)C1CCCN1C(=O)/C=C/c1ccc(O)c(O)c1 (stereo not drawn)",
    "CAT": "1 (yes)"
  },
  {
    "COMPOUND": "O=C(/C=C/c1ccc(O)cc1)NC(Cc1ccccc1)C(=O)NO (stereo not drawn)",
    "CAT": "0 (no)"
  },
  {
    "COMPOUND": "O=C(O)/C=C/c1ccc(O)cc1",
    "CAT": "0 (no)"
  },
  {
    "COMPOUND": "COc1cc(/C=C/C(=O)NC(Cc2ccccc2)C(=O)NO)ccc1O (stereo not drawn)",
    "CAT": "1 (yes)"
  }
]

---

Molecular target: Tyrosinase (Agaricus bisporus) (UniProt O42713)
Sequence (whole entry): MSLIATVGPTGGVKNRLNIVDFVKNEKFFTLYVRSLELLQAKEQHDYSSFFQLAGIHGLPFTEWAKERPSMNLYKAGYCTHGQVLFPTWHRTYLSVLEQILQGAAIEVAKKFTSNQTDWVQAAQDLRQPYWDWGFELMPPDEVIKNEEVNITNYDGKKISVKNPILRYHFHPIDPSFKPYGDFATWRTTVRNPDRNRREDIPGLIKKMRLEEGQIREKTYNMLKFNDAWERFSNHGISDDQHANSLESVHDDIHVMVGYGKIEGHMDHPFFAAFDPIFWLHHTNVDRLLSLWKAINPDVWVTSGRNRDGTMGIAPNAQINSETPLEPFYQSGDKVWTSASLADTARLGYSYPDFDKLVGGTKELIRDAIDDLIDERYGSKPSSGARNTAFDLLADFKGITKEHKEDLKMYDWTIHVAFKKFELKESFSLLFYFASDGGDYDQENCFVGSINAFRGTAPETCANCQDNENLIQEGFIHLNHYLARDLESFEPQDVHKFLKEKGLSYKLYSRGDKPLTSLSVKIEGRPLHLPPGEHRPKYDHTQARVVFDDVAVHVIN
Assay: Inhibition of mushroom tyrosinase using L-DOPA substrate at 50 to 100 uM incubated for 10 mins
Active and inactive are the calls of the source. The calls are words filed in the database; no cut-off is given here.
Labels: 1 (active), 0 (inactive)

[
  {
    "MOLECULE": "O=C(NO)C1CCCN1C(=O)CCc1ccc(O)c(O)c1 (configuration not stated)",
    "CAT": 0
  },
  {
    "MOLECULE": "O=C(NO)C1CCCN1C(=O)/C=C/c1ccc(O)cc1 (configuration not stated)",
    "CAT": 1
  },
  {
    "MOLECULE": "O=C(/C=C/c1ccc(O)c(O)c1)NC(Cc1ccccc1)C(=O)NO (configuration not stated)",
    "CAT": 1
  },
  {
    "MOLECULE": "O=C(CCc1ccc(O)c(O)c1)NC(Cc1ccccc1)C(=O)NO (configuration not stated)",
    "CAT": 0
  },
  {
    "MOLECULE": "O=C(NO)C1CCCN1C(=O)/C=C/c1ccc(O)c(O)c1 (configuration not stated)",
    "CAT": 1
  },
  {
    "MOLECULE": "COc1cc(/C=C/C(=O)NC(Cc2ccccc2)C(=O)NO)ccc1O (configuration not stated)",
    "CAT": 0
  },
  {
    "MOLECULE": "COc1cc(/C=C/C(=O)O)cc(OC)c1O",
    "CAT": 0
  },
  {
    "MOLECULE": "COc1cc(/C=C/C(=O)N2CCCC2C(=O)NO)ccc1O (configuration not stated)",
    "CAT": 0
  },
  {
    "MOLECULE": "COc1cc(/C=C/C(=O)O)ccc1O",
    "CAT": 0
  },
  {
    "MOLECULE": "COc1cc(/C=C/C(=O)N2CCCC2C(=O)NO)cc(OC)c1O (configuration not stated)",
    "CAT": 0
  },
  {
    "MOLECULE": "COc1cc(/C=C/C(=O)NC(Cc2ccccc2)C(=O)NO)cc(OC)c1O (configuration not stated)",
    "CAT": 0
  },
  {
    "MOLECULE": "O=C(/C=C/c1ccc(O)cc1)NC(Cc1ccccc1)C(=O)NO (configuration not stated)",
    "CAT": 1
  }
]

---

Assay: Antioxidant activity assessed as inhibition of lipid peroxidation after 48 hrs by ferric thiocyanate assay
Format: functional
Activity calls are given as the source filed them. The calls are words filed in the database; no cut-off is given here.
Labels: active, inactive

[
  {
    "MOLECULE": "O=C(NO)C1CCCN1C(=O)/C=C/c1ccc(O)c(O)c1 (stereo unspecified)",
    "CAT": "active"
  },
  {
    "MOLECULE": "COc1cc(/C=C/C(=O)NC(Cc2ccccc2)C(=O)NO)ccc1O (stereo unspecified)",
    "CAT": "active"
  },
  {
    "MOLECULE": "COc1cc(/C=C/C(=O)N2CCCC2C(=O)NO)cc(OC)c1O (stereo unspecified)",
    "CAT": "active"
  },
  {
    "MOLECULE": "COc1cc(/C=C/C(=O)N2CCCC2C(=O)NO)ccc1O (stereo unspecified)",
    "CAT": "active"
  },
  {
    "MOLECULE": "COc1cc(/C=C/C(=O)NC(Cc2ccccc2)C(=O)NO)cc(OC)c1O (stereo unspecified)",
    "CAT": "active"
  },
  {
    "MOLECULE": "O=C(NO)C1CCCN1C(=O)/C=C/c1ccc(O)cc1 (stereo unspecified)",
    "CAT": "inactive"
  }
]

---

Assay: Antioxidant activity assessed as inhibition of lipid peroxidation after 48 hrs by ferric thiocyanate assay
Format: functional
Calls of active or inactive are those of the source. The calls are words filed in the database; no cut-off is given here.
Labels: active, inactive

[
  {
    "COMPOUND": "O=C(O)CCc1ccc(O)c(O)c1",
    "CAT": "inactive"
  },
  {
    "COMPOUND": "O=C(O)/C=C/c1ccc(O)cc1",
    "CAT": "inactive"
  },
  {
    "COMPOUND": "O=C(/C=C/c1ccc(O)c(O)c1)NC(Cc1ccccc1)C(=O)NO (stereo unspecified)",
    "CAT": "active"
  },
  {
    "COMPOUND": "O=C(/C=C/c1ccc(O)cc1)NC(Cc1ccccc1)C(=O)NO (stereo unspecified)",
    "CAT": "inactive"
  },
  {
    "COMPOUND": "O=C(NO)C1CCCN1C(=O)CCc1ccc(O)c(O)c1 (stereo unspecified)",
    "CAT": "inactive"
  },
  {
    "COMPOUND": "O=C(CCc1ccc(O)c(O)c1)NC(Cc1ccccc1)C(=O)NO (stereo unspecified)",
    "CAT": "inactive"
  }
]

---

Molecular target: Tyrosinase (Agaricus bisporus, UniProt O42713)
METRIC NAME: IC50 (µM)

[
  {
    "COMPOUND": "O=C(/C=C/c1ccc(O)c(O)c1)NC(Cc1ccccc1)C(=O)NO (stereo unspecified)",
    "UNITS TEXT": "µM",
    "VALUE": 4.9
  }
]
